molecular target: T1, human vascular endothelial growth factor receptor-2 Fc chimera (KDR-Fc) (human, UniProt P35968 20-764); assay: radioactive equilibrium binding, 1 nM KDR-Fc, % of input
T1 construct: range 1-764; also called human VEGFR-2; not shown: human IgG1 Fc
T1 sequence (P35968 20-764 limits assumed, change not shown, form in doubt): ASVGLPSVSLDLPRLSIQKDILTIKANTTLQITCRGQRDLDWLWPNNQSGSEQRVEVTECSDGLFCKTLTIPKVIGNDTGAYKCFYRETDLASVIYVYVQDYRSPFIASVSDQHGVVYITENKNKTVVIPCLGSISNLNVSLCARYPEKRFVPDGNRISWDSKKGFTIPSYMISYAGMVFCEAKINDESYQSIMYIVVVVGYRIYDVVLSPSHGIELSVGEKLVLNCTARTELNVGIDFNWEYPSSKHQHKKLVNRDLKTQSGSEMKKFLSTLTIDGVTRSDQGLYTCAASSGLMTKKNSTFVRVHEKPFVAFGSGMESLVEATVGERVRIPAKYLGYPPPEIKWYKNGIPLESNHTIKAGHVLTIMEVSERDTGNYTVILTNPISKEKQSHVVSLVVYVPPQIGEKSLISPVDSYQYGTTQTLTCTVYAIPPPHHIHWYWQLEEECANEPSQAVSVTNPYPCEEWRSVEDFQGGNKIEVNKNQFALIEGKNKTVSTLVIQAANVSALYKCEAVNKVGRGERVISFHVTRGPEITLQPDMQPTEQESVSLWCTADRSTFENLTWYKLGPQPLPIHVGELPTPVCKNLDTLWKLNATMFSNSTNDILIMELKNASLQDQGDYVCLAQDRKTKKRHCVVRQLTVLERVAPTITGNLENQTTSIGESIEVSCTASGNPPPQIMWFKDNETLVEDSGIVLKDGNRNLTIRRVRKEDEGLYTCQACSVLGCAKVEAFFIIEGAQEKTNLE
Readout label: Binding to 1 nM KDR, % (%)

Ask: Quick one: Binding to 1 nM KDR, % for 4F4 PR3 (designed binder) EVVAATPTSLLISWRHPHFPTRYYRITYGETGGNSPVQEFTVPLQPPTATISGLKPGVDYTITVYAVTLAQNDRELITPISINYRT ?
Result: 15

Ask: Look at this binder and give its reported Binding to 1 nM KDR, %. 1′DelE7 PR4 (designed binder) EVVAATPTSLLISWRHPHFPTRYYRITYGETGGNSPVQEFTVPLQPPTATISGLKPGVDYTITVYAVTVAQNGHELFTPISINYRT
Result: 22

Ask: Look up Binding to 1 nM KDR, % for this binder: 3′E10 PR4 (designed binder) EVVAATPTSLLISWRHPHFPTRYYRITYGETGGNSPVQEFTVPLQPPTATISGLKPGVDYTITVYAVTAGHKDQELLTPISINYRT
Result: 21

Ask: Requested read-out: Binding to 1 nM KDR, %. Entry: 3′C8 PR4 (designed binder) EVVAATPTSLLISWRHPHFPTRYYRITYGETGGNSPVQEFTVPLQPPTATISGLKPGVDYTITVYAVTEGLNDHELMIPISINYRT
Result: 19

Ask: # query: Binding to 1 nM KDR, % of entry 3′C5 PR4 (designed binder) EVVAATPTSLLISWRHPHFPTRYYRITYGETGGNSPVQEFTVPLQPPTATISGLKPGVDYTITVYAVTDAMYGRELMTPISINYRT
Result: 27

Ask: Consider the binder 2′Del E5 PR4 (designed binder) EVVAATPTSLLISWRHPHFPTRYYRITYGETGGNSPVQEFTVPLQPPTATISGLKPGVDYTITVYAVTEGLNDHELIIPISINYRT and give its measured Binding to 1 nM KDR, %.
Result: 19
